Assay: DHE and HMC pharmacokinetics, oral, mice
Type: in vivo, female BALB/c mice
Conditions: female, BALB/c, mouse, plasma, po, 50 mg/kg p.o., Time 24, read-out: Free plasma concentration
VALUE TYPE: concentration at 24 hr (nM)
Please state the figure in nM; there is no need to write the unit.

Input line: Please report the recorded concentration at 24 hr for COc1ccc(C2c3ccc(O)cc3OCC2c2ccc(O)cc2)cc1 (stereo not shown) [Compound 1] .
Output line: 0

====

Test: HMC pharmacokinetics i.v. and i.p., mice
Format: in vivo, female BALB/c mice
Conditions: female, BALB/c, mouse, serum, ip, 50 mg/kg, i.p., 1 hr post administration; read-out: serum concentration
Description: HMC was prepared as a solution in 20% hydroxypropyl-beta-cyclodextrin (m:v, water). […] Three animals were allocated to each timepoint (15 min, 30 min, 1 hr, 4 hr and 24 hr). At each respective timepoint, animals were euthanased by cervical dislocation and blood collected. Urine was also collected and analysed for HMC. Free HMC was analysed by mass spectroscopy.
VALUE TYPE: concentration at 1 hr
Your answer should be a number followed by the unit of measure.

Input line: Could you tell me which concentration at 1 hr is on file for COc1ccc(C2c3ccc(O)cc3OCC2c2ccc(O)cc2)cc1 (stereo not shown) [Compound 1] ?
Output line: 18.7 µM
